Data origin: patent US20240417412A1

study.target: KRAS G12D (Homo sapiens, UniProt P01116, G12D)
Sequence (P01116 1-188 isoform P01116-2 G12D): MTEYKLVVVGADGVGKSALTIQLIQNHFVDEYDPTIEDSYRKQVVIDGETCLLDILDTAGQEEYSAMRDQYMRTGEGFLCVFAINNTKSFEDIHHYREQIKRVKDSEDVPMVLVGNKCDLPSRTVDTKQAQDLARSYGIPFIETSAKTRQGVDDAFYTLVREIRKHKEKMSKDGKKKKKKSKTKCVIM
test.name: KRAS G12D TR-FRET Assay
setup.conditions: His-tagged KRAS G12D, biotinylated KRPep-2d, read-out: KRAS G12D Binding IC50
pIC50: −log10 of the molar value.
assay.readout: pIC50

- CCc1c(F)ccc2cc(O)cc(-c3ncc4c(N5CCCC6(COC(=O)O6)C5)nc(OC[C@@]56CCCN5C[C@H](F)C6)nc4c3F)c12 (single isomer, unassigned) [Example 67]: 8.40

a. C#Cc1c(F)ccc2cccc(-c3ncc4c(N5CCCC6(CNC(=O)C6)C5)nc(OC[C@@]56CCCN5C[C@H](F)C6)nc4c3F)c12 (stereo partly drawn) [Example 29]
b. CCc1c(F)ccc2cc(O)cc(-c3ncc4c(N5CC(O)CC6(CCC6)C5)nc(OC[C@@]56CCCN5C[C@H](F)C6)nc4c3F)c12 (stereo partly drawn) [Example 1]
Consider a and b . Which of these has its pIC50 at a higher number? Use the label to indicate which entry you chose.
b
(b: 8.52, a: 8.00)
